# TEST NAME: NCI Yeast Anticancer Drug Screen. Data for the rad52 strain (AID 147)
# CONDITION INFO: S. cerevisiae rad52 mutant growth inhibition; at 11.0 µM
The panel holds about 79,000 compounds, 15% with a hit somewhere; the sample as a whole holds those more often. Calls of active or inactive are those of the source. No stated cut-off is given here; in the data, active means growth inhibition above about 70%; inactive means the rest.
Log the outcome using a class from T for active, F for inactive

Exercise: // param item: O=S(=O)(NNc1ccccc1)c1ccccc1 ; yields the recorded call
Solution: F

Exercise: // param item: CC(C(=O)N1C(=O)N(C(=O)C(C)C(O)c2ccccc2)C2CCCCC21)C(O)c1ccccc1 (stereo unspecified) ; yields the recorded call
Solution: F

Exercise: // param item: NC(N)=NC(N)=Nc1ccccc1 (tested in a mixture with another compound) ; yields the recorded call
Solution: F

Exercise: // param item: COc1ccc(C(C)c2cc3c(cc2OCC(C)=O)OCO3)cc1 (stereo unspecified) ; yields the recorded call
Solution: F

Exercise: // param item: CC1(C)CC(=O)C(C=NC(=S)C(N)=S)=C(O)C1 ; yields the recorded call
Solution: F

Exercise: // param item: CC1(C2CC2)C(C#N)(C#N)C1(C#N)C#N ; yields the recorded call
Solution: F

Exercise: // param item: CC(=O)/C=C/c1cc([N+](=O)[O-])ccc1O ; yields the recorded call
Solution: F

Exercise: // param item: C[n+]1c(-c2ccc(/C=N/NC(=O)c3ccc(C(=O)N/N=C/c4ccc(-c5cn6ccccc6[n+]5C)cc4)cc3)cc2)cn2ccccc21 ; yields the recorded call
Solution: F

Exercise: // param item: O=C1c2ccccc2-c2ccc(N=Cc3ccccc3)cc21 ; yields the recorded call
Solution: F

Exercise: // param item: N#Cc1nc(Nc2ccc(Cl)cc2)sc1N ; yields the recorded call
Solution: F

Exercise: // param item: Cc1ccnc2c(O)cccc12 ; yields the recorded call
Solution: T

// provenance: PubChem BioAssay (NCI)
